# credit: paper PMC9728921

Assign CC50 to each entry below.
system: PHH; assay: Cytotoxicity in HBV-infected PHH (50% decrease in GAPDH or RPLP0); format: cell-based, human; conditions: PHH donor Hu7272; treated every three to four days for 14 days

stdin: State its CC50 for this molecule: CCOC(=O)c1cc(CNCC(=O)N(CC)CCN(C)C)ncc1Br [GS-420]
stdout: > 10 µM

stdin: State its CC50 for this molecule: CCOC(=O)c1ccnc(CNCC(=O)N(CC)CCN(C)C)c1 [GS-5801]
stdout: > 10 µM

----------
Value type: pIC50
Quick note: pIC50 means taking -log10 of the concentration in moles per liter.

stdin: Enter measured pIC50, system SETDB1 (Homo sapiens), for the compound shown: Nc1ncnc2c1ncn2[C@@H]1O[C@H](CSCC[C@H](N)C(=O)O)[C@@H](O)[C@H]1O [SAH, S-(5′-Adenosyl)-L-homocysteine, reference compound]
stdout: 4.77
